Experiment: yeast display, Sf9 membrane polyspecificity reagent, FACS + sequencing; frameworks hold sequencing errors
measured-attribute: polyreactivity (PSR sort gate)

INSERT INTO assay_data (chain, measured_attribute, endpoint_value) VALUES
  ('QVQLVESGGGLVQAGGSLRLSCAASGRIFYSYAMGWYRQAPGKERELVAAISRSGGRTYYADSVKGRFTISRDNAKNTVYLQMNSLKPEDTAVYYCNAYRPRFSTRVDYWGQGTQVTVSS', 'polyreactivity (PSR sort gate)', 'high polyreactivity'),
  ('QVQLVESGGGLVQAGGSLRLSSAASGRIIDDNTMGWYRQAPGKERELVAAISVSGGRTYYADSVKGRFTISRDNAKNTVYLQMNSLNPEDTAVYFCAAARGGEYWGQGTQVTVSS', 'polyreactivity (PSR sort gate)', 'high polyreactivity'),
  ('QVQLVESGGGLVQAGGSLRLSCAASGRTFASYAMGWYRQAPGKERELVAVITRGGRTYYADSVKGRFTISRDNAKNTVYLQMNSLKPEDTAVYYCNAAYYSSSYLEDSWGQGTQVTVSS', 'polyreactivity (PSR sort gate)', 'high polyreactivity'),
  ('QVQLVESGGGLVQAGGSLRLSWAASGSIFQVYAMGWYRQAPGKEREFVAAISYSGGGTYYADSVKGRFTISRDNAKNTVYLQMNSLKPEDTAVYYCAADVSGWEYDYWGQGTQVTVSS', 'polyreactivity (PSR sort gate)', 'low polyreactivity'),
  ('QVQLVESGGGLVQAGGSLRLSCAASGITFGRNTMGWYRQAPGKERELVAAIDSGGNTYADSVKGRFTISRDNEKNTVYLQMNSLKPEDTAVYYCAVDCGEFSSYGYWGQGTQVTVSS', 'polyreactivity (PSR sort gate)', 'low polyreactivity');

====

Test: yeast display, Sf9 membrane polyspecificity reagent, FACS + sequencing; frameworks hold sequencing errors
measured-attribute: polyreactivity (PSR sort gate)

INSERT INTO measurements (chain, endpoint_value) VALUES
  ('QVQLVEAGGGLVQAGGSLRLSCAASGYTFGPNAMGWYRQAPGKEREFVAAISWSGTSTYYADYVKGRFTISRDNAKNTDYLQMNSLKPEDTAVYYCAARSYRYVSRREYWGQGTLVTVSS', 'high polyreactivity'),
  ('QVQLVESGGGLVQAGGSLRLSCAASGRTFSGYAMGWYRQATGKERELVAAITRRGGTTYYADSVKGRFTISRDNAKNTVYLQMNSLKPEDTAVYYCAAAKPRVISQNIIYDYWGQGTQVTVSS', 'high polyreactivity'),
  ('QVQLVESGGGLVQAGGSLRLSCAASGSIFPENAMGWYRQAPGKERELVAAITSSDSSTYYADSVKGRFTISRDNAKNTVYLQMNSLKPEDTAVYYCAAYRVGFRFREYYWGQGTQVTVSS', 'low polyreactivity'),
  ('QVQLVESGGGLVQAGGSLRLSCAASGSIFAANAMGWYRQAHGKERELVAAISWSGGYTYADSVKGRFTISRDNAKNTVYLQMKSLKPEDTAFYYCAADLWSQYKFGYWGQGTLVTVSS', 'low polyreactivity'),
  ('QVQLVESGGGLVQAGGSLRLSCAASGTFTRNVMGWYRQAPGKERELVAAIDNGSSTNYADSVKGRFTISRDNAKNTVYLQINSQKPEDTAVYYCANERPRSAGSAASIEQQMDYWGQGTQVTVSS', 'low polyreactivity'),
  ('QVQLVQSGGGLVQAGGSLRLSCAASGSIIGTYAMGCYRQAPGKERELVADINSGGSTYYADSVKGRFTISRDNAKNTVYLQMNSLKPDDTAVYYCAATGGVLYGTWLSYDRWGGGYWGQGTQVTVSS', 'low polyreactivity'),
  ('QVQLVESGGGLVQAGGSLRLSCSASGFTFNYNAMGWYRQAPGKERELVASITRSGGRTYYADSVKGRFTISRDNAKITVYLQMNSLKPEDTAVYYCAAEVWYSLSYRVYGGYDFWGQGTQVTVSS', 'high polyreactivity'),
  ('QVQLVESGGGLVQAGGSLRLSFAASGFTFGWYAMGWYRQAPGKGRELVAAISGGDSRTYADSVKGRFTISRDNAKNTVYLQMNSLKPADTAVYYCNAENRQLYWWTVARSHYGYWGQGTQVTVSS', 'low polyreactivity'),
  ('QVQLVESGGGLVQAGGSLRLSCASSGNIFDRYAMGRYRPAPGKERELVAGITWSGGSTNYADSVKGRFTISRDNAKNTVYLQMNSLKPEDTAVYYCGQANYYWGQGSQVTVSS', 'low polyreactivity'),
  ('QVQLVESGGGLVQAGGSLRLSCAASGFLFYYNAMGWYRQAPGKERELVATSTSGGSTNYADSVKGRFTISRDNAKNTVYLQMNSLKPEDTAVYYCAAGHSWVYGYDYWGQGTQVTVSS', 'low polyreactivity'),
  ('QVQLVESGGGLVQAGGSLRLSCASSGRIFYYNTMGWYRQAPGKERELVAAINWSGTSTYYADSVKGRFTISRDNAKNTVYLQMNSLKPEDTAVYYCAAYYRYRVTYDYYYWGQGTQVTVSS', 'high polyreactivity'),
  ('QVQLVESGGGLVQAGGSLRLSCAASGLTFVFYAMGWYRQSPGNERELVAAISWSTGRTYYADSVKGRFTISRDNAKNTVYLQMNSLKPEDTAVFYCGASFLGRKYDYWGHGTQVTVSS', 'high polyreactivity'),
  ('HLHLPERVGGLVHAGGSLRLSSAASGYISWAGYMGWYRQPPGKERELVATISYGTSTSYADSVKGRFTISRDNAKNSVYLQMNSLKPEDSAVYYCNADWVFTWYDYPNDKYDYWGQGTQVTVSS', 'low polyreactivity'),
  ('QVQLVESGGGLVQAGGSLRLSCAASGRIFQGYAMGWYRQAPGKERELVAAITRSGGSTYYADSVKGRFTISRDNAKNTVYLQMNSLKPEDTAVYYCAASHYGLLEYWGQGTQVTVSS', 'low polyreactivity'),
  ('QVQLVESGGGLVQAGGSLRLSCAASGSILNIYTMGWYRQAPGTERELVAAITSGDITYYADSVKGLFTISRDNAKNTVYLQMISLKPEDTAVYYCAADASSQINEWLSYGEGYNYWGQGTQVTVSS', 'low polyreactivity'),
  ('QVQLVESGGGLVQAGGSLRLSCAASGSIFGPYVMGWYRQAPGKERELVAAISKSGGSTYYADSVKGRFTISRDNAKNTVYLQMNSLKPEDTAVYYCATDYLGGGKRYYYWGQGTQVTVSS', 'high polyreactivity'),
  ('QVQLVESGGGLVQAGGSLRLSCAASGSTLVDYAMGWYRQAPGKERELVAAISASGGTTYYADSVKGRFTISRDNAKNTVYLQMNSLKPEDTAVYYCAKYHYYYFPYDYWGQGTQVTVSS', 'low polyreactivity'),
  ('QVQIVESGGGLVQAGGSLRLSCADSGRTLYRYGMGWYRQAPGKERELVDVIDRGGSTNYADSVKGRFTISRDNAKNTVYLLMNSLKPEDTAVYYCAKRWTAREPWRKGMGYWGQGTQVTVSS', 'high polyreactivity'),
  ('QVQLVESGGGLVQAGGSLRLSCAASGSTFTYYAMGWYRQATGKETELVAAINIGGGGTYYADSVKGRFTISRDNAKNTVYLQMKSLKPEYTAVYYCATDIYFENGFGYWGQGTQVTVSS', 'low polyreactivity'),
  ('QVQLVESGGGLVQAGRSLRLICAASGRILGGNTMGWYRQAPGKERELVAGISYSGGRTYYADSVQRRFTISRDNAKHTFYLQMNSLKPEDTAVYYCNVPLGRGRKIAYGYWGQGTQVTVSS', 'high polyreactivity'),
  ('QVQLVESGGGLVQAGGSLRLSCAASGFTFWTYAMGWYRQAPGKERELVAAISTSGGSTYYADSVKGRFTISRDNAKNTVYLQINSLKPEDTAVYYCAAYAIGEHFRARYGYWGQGTQVTVSS', 'high polyreactivity');

====

Test: yeast display, Sf9 membrane polyspecificity reagent, FACS + sequencing; frameworks hold sequencing errors
measured-attribute: polyreactivity (PSR sort gate)

INSERT INTO measurements (chain, measured_attribute, endpoint_value) VALUES
  ('QVQIVESGGGLVQAGGSLRLSCAASGITFHDYAMGWDRQEPGQERELVATIRSSTYYADSVKGRFTISRDTAKNTVYLQMNSLKTEDTAVYYCNVRLSYSYISPSDWNFDYWGQGTQVTVSS', 'polyreactivity (PSR sort gate)', 'low polyreactivity'),
  ('QVQLVESGGGLVQAGGSLRLSCAASGSTFAANPMGWYRQAPGKERELVAAITSSGGSTYYADSVKGRFTISRDNAKNTVYLQMNSLKPEDTEVYYCNKDIERYVRIYDSWGQGTQVTVSS', 'polyreactivity (PSR sort gate)', 'low polyreactivity'),
  ('QVQLVESGGGLVQAGGSLRLSCDASGRIYEVYAMGWYRRAPGKERELVAAISADGTITSYADSVKGRFTISRDNAKNNVYLQMNSLKPEDTAVYYCNADPRFRGDYWGQGTQVTVSS', 'polyreactivity (PSR sort gate)', 'high polyreactivity'),
  ('QVQLVESGGGLVQAGGSLRLSCAASGSIFGRYAMGWYRQAPGKERELVAAISWRGGSTYYADSVKGRFTISRDNAKNTVYLQMNRLKPEDTAVYYCAKSGTFYYPRYDYWGQGTQVTVSS', 'polyreactivity (PSR sort gate)', 'high polyreactivity'),
  ('QVQLEESGGGLVQAGGSLRLSCAASGFTFARNGMGWYRQAPVKESEFVAAITRSGGRTYYADSVKGRFTISRDNAKNTVYLQMNSLKPEDTAVYYCAAATSYGKSEYDYWGQGTQVTVSS', 'polyreactivity (PSR sort gate)', 'high polyreactivity'),
  ('QVQLVESGGGLVQAGGSLRLSCAASGFTYYVNAMGWYRPAPGKERELDAAISSSGTRTYYADSVKGRFTISRDNAKNTVYLQMNSLKPEDTAVYYCAARGQAYSGDRMYYWGQGTQVTVSS', 'polyreactivity (PSR sort gate)', 'high polyreactivity'),
  ('QVQLVESGGGLVQAGGSLRLSCAASGRTFRANAMGWYRQAPGKERELFAAISYSGGRTRYADSVKGRFTISRDNAKNTVYLQMNSLKPEDTAVYYCNRVIPTQSLRDAPGLHQVGYWGQGTQVTVSS', 'polyreactivity (PSR sort gate)', 'high polyreactivity'),
  ('QVQLVESGGGLVQAGGSLRLSCAASGSTFESNFMGWYRQAPGKEWELVAAITWTGGSTYYADSVKGRFTISRDNAKNNVYLQMNSLKPVDTAVYYCATYDPGPLLGSDYWGHGTQVTVSS', 'polyreactivity (PSR sort gate)', 'low polyreactivity'),
  ('QVQLVESGGGLVQAGGSLRLSCAASGRIFTAYHMGWYRQAPGKESELVAAITRSSGSTYYADSVKGRFTISRDNAKNTVYLQMIRLKPEVTAVYYCATDGEFWGYDSWGQGTQVTVSS', 'polyreactivity (PSR sort gate)', 'low polyreactivity'),
  ('QVQLVESGGGLVQAGGSLRLSCAASGRTFYFYVMGWYRQAPGKERELVASITSGGSTNYADSVKGRFTISRDNAKNTVYLQMNSLKPEDTAVYYCAAALPASTSGTQPYDYWGQGTQVTVSS', 'polyreactivity (PSR sort gate)', 'low polyreactivity'),
  ('QVQLVESGGGLVQAGGSLRLSCAASGSIFVPYAMGWYRQEPGKERELVAAISRRGGRTNYADSVKGRFTISRDNAKNTVYLQMNSLKPEDTAVYYCADGWRGVYYTRYDSWGQGTQVTVSS', 'polyreactivity (PSR sort gate)', 'high polyreactivity');
